Recorded values, source ChEMBL document CHEMBL5661983.

experiment: Tmax in human NCI-H2228 cell xenografted NOD.CB17-Prkdcscid/J mouse tumor at 1 mg/kg/day for 5 days by HPLC-MS analysis; format: ADME, organism-based, Neoplasm; settings: route po, time 5 day
measurement label: Tmax (h)

| compound | recorded measurement |
| --- | --- |
| COc1cc(N2CCC(N3CCN(C)CC3)CC2)ccc1Nc1ncnc(Nc2ccccc2S(=O)(=O)C(C)C)n1 [ASP-3026] | 4 |

----------
assay: in vivo; conditions: NOD.CB17-Prkdcscid/J, mouse, tumour, po, 1 mg/kg
measurement label: Kp at 120 h

| chem smiles | recorded measurement |
| --- | --- |
| COc1cc(N2CCC(N3CCN(C)CC3)CC2)ccc1Nc1ncnc(Nc2ccccc2S(=O)(=O)C(C)C)n1 | 22 |
